Data provenance is patent US20090111801A1.

# system-tested: hα2C receptor (Homo sapiens, UniProt P18825)
# Construct: expressed in transfected cells; host or cells: CHO cells, stably transfected; membrane preparation
# Sequence (P18825 whole entry): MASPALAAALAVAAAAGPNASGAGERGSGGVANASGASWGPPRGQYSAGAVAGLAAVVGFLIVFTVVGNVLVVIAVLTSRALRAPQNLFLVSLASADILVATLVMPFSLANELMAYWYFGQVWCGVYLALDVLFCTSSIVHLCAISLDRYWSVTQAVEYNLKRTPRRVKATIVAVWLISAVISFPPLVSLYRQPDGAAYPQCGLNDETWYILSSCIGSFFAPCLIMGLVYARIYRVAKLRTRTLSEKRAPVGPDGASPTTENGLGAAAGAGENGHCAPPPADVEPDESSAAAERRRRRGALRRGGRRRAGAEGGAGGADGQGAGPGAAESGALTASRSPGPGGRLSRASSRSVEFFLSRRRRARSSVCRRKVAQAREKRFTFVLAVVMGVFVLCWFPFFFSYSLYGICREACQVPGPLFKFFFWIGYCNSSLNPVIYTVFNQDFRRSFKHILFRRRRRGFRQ
# experiment-summary: Radioligand binding experiment for α2C-adrenoceptor ([3H]raulwolscine, CHO cell membranes)
# condition-context: [3H]raulwolscine binding, read-out: h-α2C pIC50 (converted)
Measured IC50 values are reported for all entries that follow.
All answers are understood in nM, so give the number only.

Short answer for CC(C)(C)OC(=O)NCCCn1ccnc(NC2CCN(C/C=C/c3ccccc3)CC2)c1=O [16-4] : IC50 was 39.8

Input C/C(=C\c1ccccc1)CN1CCC(Nc2nccn(CCCN3C(=O)c4ccccc4C3=O)c2=O)CC1 [2-50] . Output IC50: 1

Continuing:
// recorded IC50 for C/C(=C\c1ccccc1)CN1CCC(Nc2nccn(CC(=O)N3CCN(C)CC3)c2=O)CC1 [2-20] : 3.16

Measured IC50 of CCN(Cc1ccncc1)C(=O)Cn1ccnc(NC2CCN(C/C(C)=C/c3ccccc3)CC2)c1=O [1-142] : 3.16
